The reported numbers originate from the supplement of paper PMC12042874.

# test_name: amyloid nucleation score (Sup35N fusion, yeast selection) (log enrichment); library NNK2; higher = more nucleation; inactive = no reads after selection;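 further: zero at mode of non-aggregating sequences after 7 days selection at 30°C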
Each entry belongs to exactly one class, chosen by where its amyloid nucleation score falls: category 1 (below -0.3), category 2 (-0.3 to below 0.9), category 3 (0.9 or more)

SAHFTIRKELFLKDTRRVV | category 1

Asked: Exercise: read the entry `DAFWLWSFIWACVLCFTKHR` and state which class it falls under.
Given back: category 1

Asked: // bin(item) where item = `IDILWVRVNAFLSVVEIRSN`
Given back: category 3

Asked: Hi there! Could you help me figure out the category for `KFYIPSDLVLVRCPST` please?
Given back: category 1

Asked: Which band does `VISSMFNLIKYGSVWSLRGL` fall in?
Given back: category 1

Asked: State the band of `GGRRCGFITIRETNRTLLAL`
Given back: category 2

Asked: Hi there! Could you help me figure out the category for `FLNHYWLYFQP` please?
Given back: category 3

Asked: Form field 'band' for `CIISFGLMHEYCYVAM`
Given back: category 3

Asked: Category of `GREVHALPHEGMVDRSGRGT` , please.
Given back: category 3

Asked: Lab note: which band did `ALIRFCTSW` land in?
Given back: category 2

Asked: Which category does the recorded amyloid nucleation score put `NHCPHTKWGTTYCAHGCIHA` in?
Given back: category 2

Asked: Into which bin does this substance go? `QHTKGHSPEWD`
Given back: category 3
